Can you tell me recombinant barcode read abundance (log10) for the items I'm about to list?
Experiment: recombinant barcode read abundance after kanamycin selection (control-corrected) (log10(CPM+1)); higher = more efficient recombination; sequences stand for … in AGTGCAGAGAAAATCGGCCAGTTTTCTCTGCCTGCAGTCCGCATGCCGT…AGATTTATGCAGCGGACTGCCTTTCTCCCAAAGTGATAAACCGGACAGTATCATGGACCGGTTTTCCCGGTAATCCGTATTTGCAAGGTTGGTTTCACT; site = the 11-nt target;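 note: IS621 recombinase and bridge RNA in Escherichia coli cells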
Keep it simple and answer with nothing but the number.

Sample ACGCGAGCTTGGGTTCTAACCTGTTGCGG (site ACGCGAGCTCG) — what was its recombinant barcode read abundance (log10)?
0.316

What measured recombinant barcode read abundance (log10) goes with CTCCATACTTGGGTTCTAACCTGTTGCCT (site CTCCATACTAG) ?
0.814

Could you tell me which recombinant barcode read abundance (log10) is on file for GCCCAATCTTGGGTTCTAACCTGTTGCCT (site GCCCTATCTAG) ?
0.195

Reported recombinant barcode read abundance (log10), sequence GGAGAGTCTTGGGTTCTAACCTGTTGCCT (site GTAGAGTCTAG) : ____
1.09
